# MEASURED_TARGET: L-lactate dehydrogenase (Plasmodium falciparum (isolate CDC / Honduras))
# PROCEDURE_SUMMARY: PfLDH activity inhibition – cell lysate, 3D7 strain, counter-screen for P. falciparum growth inhibition project (AID 2304);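 note: 0% = vehicle and 100% = reference inhibitor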
# PROTOCOL_CONDITIONS: P. falciparum 3D7 crude extract, LDH APAD/NBT absorbance; at 2 µM; active compounds read high
EXPERIMENTAL_ENDPOINT: inhibition (%)
Please give a number only; it is taken to be in %.

Answered cases to consult:
Cc1cccc2[nH]c(-c3ccc(-c4ccc(NC(=O)C(=O)c5cccn5C)cc4)cc3)nc12 :: 8
CC(C)CCNC(=O)C1Cc2c([nH]c3cc(Br)ccc23)C2(CCN(Cc3ccccc3)CC2)N1 (centres undefined) :: -5
COc1cc(C(=O)Nc2nc3ccccc3[nH]2)ccc1OCC(=O)Nc1cccc(C(F)(F)F)c1 :: -8

[in] For the compound N#Cc1ccc(NC(=O)c2ccc(C(=O)NCCCCN3CCC(c4ccc5c(c4OCCOC4CCCCO4)CCCC5)CC3)cc2)cc1 (centres undefined) , what inhibition is on record?
[out] -6
